# protocol.text: Drug recovery in Sprague-Dawley rat feces at 3 mg/kg, po administered via gavage measured after 64 hrs by LC-MS/MS analysis
# Format: ADME, organism-based
# measurement.setup: faeces, read-out: Drug recovery
Below, each entry is listed with its recorded dose excreted at 64 h.
property.measured: dose excreted at 64 h

record_smiles=CN1Cc2c(Cl)cc(Cl)cc2[C@H](c2cccc(S(=O)(=O)NCCOCCOCCOCCNC(=O)NCCOCCOCCOCCNS(=O)(=O)c3cccc([C@@H]4CN(C)Cc5c(Cl)cc(Cl)cc54)c3)c2)C1 property_measured="dose excreted at 64 h" result=82%
record_smiles=CN1Cc2c(Cl)cc(Cl)cc2[C@H](c2cccc(S(=O)(=O)NCCOCCOCCOCCNC(=O)NCCCNC(=O)NCCOCCOCCOCCNS(=O)(=O)c3cccc([C@@H]4CN(C)Cc5c(Cl)cc(Cl)cc54)c3)c2)C1 property_measured="dose excreted at 64 h" result=96%
